# Assay: Volume of distribution in rat at 1 mg/kg, iv
# Assay type: ADME, organism-based
# Measurement conditions: in vivo
Endpoint: Vd (L/kg)
All answers are understood in L/kg, so give the number only.

Q: Give the measured Vd of C[C@]1(O)CCN(c2nc(N3C[C@H](O)[C@@H](O)C3)cc(C(F)(F)F)c2C#N)C1 .
A: 1.38

====

Would you mind telling me the reported solubility thermodynamic of each entry?
# Assay: Thermodynamic solubility of compound at pH 7.4
# Assay type: physicochemical
# Measurement conditions: buffer, read-out: Therm_solubility
State the result as a value with its unit after it.

Q: Requested field: solubility thermodynamic. Item: C[C@]1(O)CCN(c2c(C#N)c(C(F)(F)F)nc3cc[nH]c23)C1
A: 147 µM

Q: Cool, now C[C@]1(O)CCN(c2nc(N3C[C@H](O)[C@@H](O)C3)cc(C(F)(F)F)c2C#N)C1
A: 503 µM

Hey, just so you know, these numbers are from ChEMBL document CHEMBL4017511.
